Recorded measurements of LOGP_HCOOH, one per entry
measurement.notes: log P by HPLC on a reversed-phase column (C 18), EEC Directive 79/831 Annex V.A8
Type: physicochemical
setup.conditions: acidic range, pH 2.7, 0.1% aqueous formic acid/acetonitrile; 55° C.

Some entries whose results are on file:
## Task Quickly give me recorded LOGP_HCOOH for CCS(=O)(=O)c1ccc(NC(C)=O)nc1-c1nc2cc(C(F)(F)F)ncc2n1C
## Result 2.05

## Task Provide measured LOGP_HCOOH value, entry: CCSc1ccccc1-c1nc2cc(C(F)(F)F)ncc2n1C
## Result 2.94

## Task Return the recorded LOGP_HCOOH value; entry: Cn1c(-c2ncc(C(F)(F)F)cc2S(C)(=O)=O)nc2cc(C(F)(F)F)ncc21
## Result 2.67

## Task Determine from records and report LOGP_HCOOH for CC[S+]([O-])c1cccnc1-c1nc2cc(C(F)(F)C(F)(F)F)ncc2n1C (stereo not drawn)
## Result 2.71

## Task Fill in reported LOGP_HCOOH for this entry: CCS(=O)(=O)c1c(C(F)(F)F)ccnc1-c1nc2cc(C(F)(F)F)ncc2n1C
## Result 2.70

## Task Report LOGP_HCOOH for CCS(=O)(=O)c1ccccc1-c1nc2cc(C(F)(F)F)ncc2n1C
## Result 2.13

New cases:
## Task Identify measured LOGP_HCOOH corresponding to CC[S+]([O-])c1c(C(F)(F)F)ccnc1-c1nc2cc(C(F)(F)F)ncc2n1C (stereo not drawn)
## Result 2.48

## Task Supply LOGP_HCOOH value. Item: CCSc1cccnc1-c1nc2cc(C(F)(F)F)ncc2n1C
## Result 2.39

## Task Look up LOGP_HCOOH of CCSc1cc(C(F)(F)F)cnc1-c1nc2cc(C(F)(F)F)ncc2n1C and report it.
## Result 3.52

These data points were gathered from patent US11274097B2.
